Taken from patent US8822500B2.

- Assay Remarks: Caco-2 cell permeation study;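 note: Caco-2 monolayers grown for 21–28 days with integrity confirmed by TEER, apical buffer HBSS with MES, basolateral buffer HBSS with HEPES, compound levels quantified by LC/MS/MS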
- Type: in vitro ADME
- Measurement Conditions: human, Caco-2, Caco-2
Readout: efflux ratio at 2 h, 10 μM
Could you respond with only the numeric value?

In the examples that follow, each entry is paired with its recorded efflux ratio at 2 h, 10 μM.
{"columns": ["Compound", "efflux ratio at 2 h, 10 μM"],
 "data": [
  ["CC(Cc1c(F)c(F)cc(F)c1F)Nc1cc[nH]c(=O)c1-c1nc2cc3c(cc2[nH]1)C(=O)N(C)C3 (stereo not drawn)", 1],
  ["CC(Cc1cc(F)ccc1F)Nc1cc[nH]c(=O)c1-c1nc2cc3c(cc2[nH]1)CN(C)C3=O (stereo not drawn)", 0.8]
]}

Switching to the query record.
## Input Please give the measured efflux ratio at 2 h, 10 μM for this compound: CC(Cc1cc(F)ccc1F)Nc1cc[nH]c(=O)c1-c1nc2cc3c(cc2[nH]1)CNC3=O (stereo not drawn)
## Output 6.6

* * *

Below is a list of entries, each paired with its recorded IC50 value.
- Experimental System: ALK (Homo sapiens (Human))
- Sequence (Q9UM73 19-1620): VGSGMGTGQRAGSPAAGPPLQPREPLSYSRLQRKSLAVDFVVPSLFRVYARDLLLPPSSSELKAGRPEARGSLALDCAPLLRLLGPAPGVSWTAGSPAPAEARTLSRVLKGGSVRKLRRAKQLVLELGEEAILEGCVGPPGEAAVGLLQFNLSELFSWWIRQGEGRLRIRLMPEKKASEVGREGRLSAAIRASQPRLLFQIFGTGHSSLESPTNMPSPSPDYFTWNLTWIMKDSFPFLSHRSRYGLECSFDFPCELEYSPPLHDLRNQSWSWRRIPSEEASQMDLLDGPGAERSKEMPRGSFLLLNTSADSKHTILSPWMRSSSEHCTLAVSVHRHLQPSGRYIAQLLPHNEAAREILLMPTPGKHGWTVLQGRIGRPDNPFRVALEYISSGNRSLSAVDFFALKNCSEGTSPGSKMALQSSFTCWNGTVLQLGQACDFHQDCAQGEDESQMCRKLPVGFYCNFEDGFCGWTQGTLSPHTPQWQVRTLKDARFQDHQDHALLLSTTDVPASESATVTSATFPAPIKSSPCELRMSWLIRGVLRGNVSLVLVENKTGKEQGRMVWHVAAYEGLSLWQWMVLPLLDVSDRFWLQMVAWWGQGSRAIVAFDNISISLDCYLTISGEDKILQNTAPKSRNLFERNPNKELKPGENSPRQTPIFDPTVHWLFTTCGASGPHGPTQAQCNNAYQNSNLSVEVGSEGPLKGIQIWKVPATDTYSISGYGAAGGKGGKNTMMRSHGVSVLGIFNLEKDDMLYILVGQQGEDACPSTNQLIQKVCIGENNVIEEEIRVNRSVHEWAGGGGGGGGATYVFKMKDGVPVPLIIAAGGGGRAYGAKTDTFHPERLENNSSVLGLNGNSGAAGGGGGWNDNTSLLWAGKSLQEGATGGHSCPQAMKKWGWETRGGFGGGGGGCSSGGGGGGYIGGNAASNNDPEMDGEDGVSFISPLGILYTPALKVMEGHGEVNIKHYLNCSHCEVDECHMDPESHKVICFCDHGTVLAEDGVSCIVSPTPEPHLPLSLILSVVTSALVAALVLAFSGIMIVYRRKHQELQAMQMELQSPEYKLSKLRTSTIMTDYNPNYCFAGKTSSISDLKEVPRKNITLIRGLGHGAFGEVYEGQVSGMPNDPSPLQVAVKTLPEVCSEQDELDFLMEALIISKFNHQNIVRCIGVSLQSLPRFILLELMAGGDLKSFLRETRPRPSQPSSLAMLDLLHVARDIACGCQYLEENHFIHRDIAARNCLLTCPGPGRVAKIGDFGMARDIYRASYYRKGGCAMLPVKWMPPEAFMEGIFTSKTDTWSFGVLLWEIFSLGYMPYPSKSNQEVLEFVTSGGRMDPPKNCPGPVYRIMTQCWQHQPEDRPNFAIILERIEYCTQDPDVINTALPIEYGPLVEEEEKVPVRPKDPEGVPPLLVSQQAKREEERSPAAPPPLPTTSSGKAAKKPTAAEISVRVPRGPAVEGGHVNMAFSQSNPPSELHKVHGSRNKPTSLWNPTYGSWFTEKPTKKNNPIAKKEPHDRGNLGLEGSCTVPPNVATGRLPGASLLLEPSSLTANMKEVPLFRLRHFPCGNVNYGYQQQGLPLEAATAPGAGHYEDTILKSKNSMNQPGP
- Assay Remarks: In vitro kinase activity assay (LANCE TR-FRET);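 note: kinase reactions with ATP and a poly-GT peptide substrate, phosphorylated product read by time-resolved FRET, 11-point curve from 10^−11 to 10^−5 M, DMSO as negative control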
- Type: biochemical
- Measurement Conditions: read-out: ALK (nM) IC50
Respond numerically; units are nM and should not be typed.

In the examples that follow, each entry is paired with its recorded IC50.
{"columns": ["Compound", "IC50 / nM"],
 "data": [
  ["COC1c2cc3nc(-c4c(N[C@@H](C)Cc5c(F)c(F)cc(F)c5F)cc[nH]c4=O)[nH]c3cc2C(=O)N1c1cccnc1 (stereo partly shown)", 174],
  ["Cc1c2c(cc3[nH]c(-c4c(NC(C)Cc5c(F)c(F)cc(F)c5F)cc[nH]c4=O)nc13)C(=O)N(C1CCN(C)CC1)C2=O (stereo not shown)", 231],
  ["Cc1c2c(cc3[nH]c(-c4c(NC(C)Cc5c(F)c(F)cc(F)c5F)cc[nH]c4=O)nc13)C(=O)N(C1CCN(C)CC1)C2 (stereo not shown) [Compound 24A]", 14.6],
  ["C[C@@H](Cc1c(F)c(F)cc(F)c1F)Nc1cc[nH]c(=O)c1-c1nc2cc3c(cc2[nH]1)C(=O)N(CCN(C)C)C3=O", 14],
  ["Cc1c2c(cc3[nH]c(-c4c(NC(C)Cc5c(F)c(F)cc(F)c5F)cc[nH]c4=O)nc13)CN(C1CCN(C)CC1)C2=O (stereo not shown)", 23.7],
  ["CC(Cc1cc(F)ccc1F)Nc1cc[nH]c(=O)c1-c1nc2cc3c(cc2[nH]1)C(=O)N(CCN(C)C)C3 (racemic)", 9.16]
]}

## Input Please give the measured IC50 for this compound: CC(Cc1c(F)c(F)cc(F)c1F)Nc1cc[nH]c(=O)c1-c1nc2cc3c(cc2[nH]1)C(=O)N(C)C3 (stereo not shown)
## Output 17.5

## Input Please give the measured IC50 for this compound: C[C@@H](Cc1c(F)c(F)cc(F)c1F)Nc1cc[nH]c(=O)c1-c1nc2cc3c(cc2[nH]1)C(=O)N(c1cccnc1)C3=O
## Output 47.3

## Input Please give the measured IC50 for this compound: CC(Cc1cc(F)ccc1F)Nc1cc[nH]c(=O)c1-c1nc2cc3c(cc2[nH]1)C(=O)N(CCN(C)C)C3=O (stereo not shown)
## Output 38.9

## Input Please give the measured IC50 for this compound: CC(Cc1cc(F)ccc1F)Nc1cc[nH]c(=O)c1-c1nc2cc3c(cc2[nH]1)CN(C)C3=O (stereo not shown)
## Output 24.7

## Input Please give the measured IC50 for this compound: CC(Cc1cc(F)ccc1F)Nc1cc[nH]c(=O)c1-c1nc2cc3c(cc2[nH]1)CNC3=O (stereo not shown)
## Output 34.1
